Experiment: Safety, tolerability and pharmacokinetics in patients having chronic kidney disease (Example 9)
Format: in vivo, human
Settings: human, plasma, oral, 0.5 mg/day, CKD patients, multiple doses 0.5 mg/day; read-out: average steady-state AUCtau
Procedure: The patients in this example were those having chronic kidney disease with symptoms of renal failure, proteinuria, acute kidney injury, glomerular nephritis, renal cyst, urinary frequency, renal calculus, obstructive uropathy, and etc. […] Plasma samples were collected to measure plasma drug concentration, and the pharmacokinetic parameters were analyzed using the non-compartment model. […]
parameter_measured: AUC (ng·h/mL)
Write down the numeric answer in ng·h/mL and omit the unit.

Data request: Given `N#Cc1ccc(N2N=C3c4ccc(C(=O)N5CCC(O)CC5)nc4CC[C@@H]3[C@@H]2C2CCCC2)cc1Cl` , state its recorded AUC.
Data returned: 652

Each recorded value in this set is attributed to patent US11806344B2.
